test system: HCT-116; test: Induction of apoptosis in human HCT-116 cells assessed as retraction of the nucleus at 30 micromol/L incubated for 48 hrs by Giemsa staining based fluorescence microscopy; type: functional, cell-based; conditions: dose 30.0 µmol/L
Active and inactive are the calls of the source. The rule behind the calls is not given here.

compound-structure | Activity
COc1cc(COC(=O)CC[C@@H](C)[C@H]2CC[C@H]3[C@@H]4[C@H](O)C[C@@H]5C[C@H](O)CC[C@]5(C)[C@H]4C[C@H](O)[C@]23C)cc(OC)c1 | Active
COC(=O)[C@H](CCSC)NC(=O)CC[C@@H](C)[C@H]1CC[C@H]2[C@@H]3[C@H](O)C[C@@H]4C[C@H](O)CC[C@]4(C)[C@H]3CC[C@]12C | Active
COC(=O)c1ccc(COC(=O)CC[C@@H](C)[C@H]2CC[C@H]3[C@@H]4[C@H](O)C[C@@H]5C[C@H](O)CC[C@]5(C)[C@H]4C[C@H](O)[C@]23C)cc1 | Active

###

Listed molecules paired with reported pIC50
tested on: LoVo; experiment: Anticancer activity against human LoVo cells assessed as inhibition of cell proliferation by MTT assay; type: functional, cell-based
pIC50: −log10 of the molar value.

molecule | result-comparator | pIC50
C[C@H](CCC(=O)OCc1cccc(O)c1)[C@H]1CC[C@H]2[C@@H]3[C@H](O)C[C@@H]4C[C@H](O)CC[C@]4(C)[C@H]3CC[C@]12C | = | 4.39
COc1cc(COC(=O)CC[C@@H](C)[C@H]2CC[C@H]3[C@@H]4[C@H](O)C[C@@H]5C[C@H](O)CC[C@]5(C)[C@H]4C[C@H](O)[C@]23C)cc(OC)c1 | = | 4.64
C[C@H](CCC(=O)O)[C@H]1CC[C@H]2[C@@H]3[C@H](O)C[C@@H]4C[C@H](O)CC[C@]4(C)[C@H]3CC[C@]12C [CHENODIOL] | < | 3.70
C[C@H](CCC(=O)OCc1cccc(O)c1)[C@H]1CC[C@H]2[C@@H]3[C@H](O)C[C@@H]4C[C@H](O)CC[C@]4(C)[C@H]3C[C@H](O)[C@]12C | = | 4.54
C[C@H](CCC(=O)O)[C@H]1CC[C@H]2[C@@H]3[C@@H](O)C[C@@H]4C[C@H](O)CC[C@]4(C)[C@H]3CC[C@]12C [URSODIOL] | < | 3.70

###

test system: SK-HEP1; test: Anticancer activity against human SK-HEP1 cells assessed as inhibition of cell proliferation by MTT assay; format: functional, cell-based
pIC50: −log10 of the molar value.
Listed compounds paired with reported pIC50

compound-structure | target-of-assay | result-comparator | pIC50
C[C@H](CCC(=O)NCc1ccccc1O)[C@H]1CC[C@H]2[C@@H]3[C@H](O)C[C@@H]4C[C@H](O)CC[C@]4(C)[C@H]3C[C@H](O)[C@]12C | SK-HEP1 | = | 4.60
COC(=O)c1ccc(COC(=O)CC[C@@H](C)[C@H]2CC[C@H]3[C@@H]4[C@H](O)C[C@@H]5C[C@H](O)CC[C@]5(C)[C@H]4C[C@H](O)[C@]23C)cc1 | SK-HEP1 | = | 4.38
CC(=O)Oc1ccc(OC(=O)CC[C@@H](C)[C@H]2CC[C@H]3[C@@H]4[C@@H](O)C[C@@H]5C[C@@H](O)CC[C@]5(C)[C@H]4CC[C@]23C)cc1 | SK-HEP1 | = | 3.75
Cc1ccc(COC(=O)CC[C@@H](C)[C@H]2CC[C@H]3[C@@H]4[C@H](O)C[C@@H]5C[C@H](O)CC[C@]5(C)[C@H]4C[C@H](O)[C@]23C)cc1 | SK-HEP1 | = | 4.22
C[C@H](CCC(=O)O)[C@H]1CC[C@H]2[C@@H]3[C@H](O)C[C@@H]4C[C@H](O)CC[C@]4(C)[C@H]3CC[C@]12C | SK-HEP1 | < | 3.70
C[C@H](CCC(=O)OCc1cccc(O)c1)[C@H]1CC[C@H]2[C@@H]3[C@H](O)C[C@@H]4C[C@H](O)CC[C@]4(C)[C@H]3C[C@H](O)[C@]12C | SK-HEP1 | = | 4.21
COC(=O)[C@H](CCSC)NC(=O)CC[C@@H](C)[C@H]1CC[C@H]2[C@@H]3[C@H](O)C[C@@H]4C[C@H](O)CC[C@]4(C)[C@H]3CC[C@]12C | SK-HEP1 | = | 4.41
C[C@H](CCC(=O)O)[C@H]1CC[C@H]2[C@@H]3[C@@H](O)C[C@@H]4C[C@H](O)CC[C@]4(C)[C@H]3CC[C@]12C | SK-HEP1 | < | 3.70
C[C@H](CCC(=O)O)[C@H]1CC[C@H]2[C@@H]3[C@H](O)C[C@@H]4C[C@H](O)CC[C@]4(C)[C@H]3C[C@H](O)[C@]12C | SK-HEP1 | < | 3.70
